SYSTEM_NAME: Human HER3, endogenous, on human cancer cell lines (SK-Br-3, MCF7, BT-474) (human, UniProt P21860 20-1342)
Sequence (P21860 20-1342): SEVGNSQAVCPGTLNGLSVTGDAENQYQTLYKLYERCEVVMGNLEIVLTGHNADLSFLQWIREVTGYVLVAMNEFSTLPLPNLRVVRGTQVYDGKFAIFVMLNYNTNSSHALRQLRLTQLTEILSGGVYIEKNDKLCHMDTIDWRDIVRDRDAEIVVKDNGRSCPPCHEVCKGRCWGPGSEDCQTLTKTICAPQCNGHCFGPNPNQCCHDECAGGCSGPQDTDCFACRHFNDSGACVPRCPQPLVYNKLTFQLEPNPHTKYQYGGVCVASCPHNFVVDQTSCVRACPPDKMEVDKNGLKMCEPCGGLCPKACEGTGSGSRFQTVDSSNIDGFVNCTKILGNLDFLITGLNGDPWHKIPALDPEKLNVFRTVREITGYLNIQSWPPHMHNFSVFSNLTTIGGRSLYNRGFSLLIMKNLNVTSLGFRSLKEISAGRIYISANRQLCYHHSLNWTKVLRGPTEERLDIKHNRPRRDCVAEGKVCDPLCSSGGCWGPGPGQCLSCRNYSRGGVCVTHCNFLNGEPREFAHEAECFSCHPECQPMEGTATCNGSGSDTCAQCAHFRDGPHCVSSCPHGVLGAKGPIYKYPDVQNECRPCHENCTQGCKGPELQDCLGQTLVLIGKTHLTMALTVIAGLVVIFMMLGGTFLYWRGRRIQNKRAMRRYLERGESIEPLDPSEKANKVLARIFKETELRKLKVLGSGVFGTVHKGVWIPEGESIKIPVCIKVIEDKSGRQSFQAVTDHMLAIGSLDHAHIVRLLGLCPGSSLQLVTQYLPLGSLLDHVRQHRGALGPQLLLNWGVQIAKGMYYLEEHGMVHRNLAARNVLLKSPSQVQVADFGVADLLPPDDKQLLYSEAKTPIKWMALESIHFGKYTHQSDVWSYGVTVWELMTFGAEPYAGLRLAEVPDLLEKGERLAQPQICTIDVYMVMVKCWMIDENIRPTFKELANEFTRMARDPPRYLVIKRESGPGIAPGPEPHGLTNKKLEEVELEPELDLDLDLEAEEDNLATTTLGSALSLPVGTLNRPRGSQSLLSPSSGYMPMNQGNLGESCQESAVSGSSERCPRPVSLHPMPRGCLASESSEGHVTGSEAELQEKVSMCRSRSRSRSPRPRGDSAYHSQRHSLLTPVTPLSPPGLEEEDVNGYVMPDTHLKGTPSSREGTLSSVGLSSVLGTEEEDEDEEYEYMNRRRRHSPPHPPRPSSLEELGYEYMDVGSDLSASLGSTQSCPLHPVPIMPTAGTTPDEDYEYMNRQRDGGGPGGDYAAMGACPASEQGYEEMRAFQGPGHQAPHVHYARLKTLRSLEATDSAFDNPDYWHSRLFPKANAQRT
TEST_DESCRIPTION: cell-based or functional assay
Would you kindly list SK-Br-3 proliferation IC50 for each of these binders?
Numbers only here, please. The scale is pM.

// query State its SK-Br-3 proliferation IC50 for this binder: MOR13868 (antibody, human IgG1, kappa, V domains shown, tested as IgG) VH: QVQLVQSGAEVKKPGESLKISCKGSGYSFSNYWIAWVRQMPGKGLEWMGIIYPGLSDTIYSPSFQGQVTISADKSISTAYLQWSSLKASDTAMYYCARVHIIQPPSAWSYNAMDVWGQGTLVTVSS VL: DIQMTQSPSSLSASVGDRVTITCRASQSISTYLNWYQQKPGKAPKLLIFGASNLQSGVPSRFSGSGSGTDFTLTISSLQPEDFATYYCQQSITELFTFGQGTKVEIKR
// result 251

// query State its SK-Br-3 proliferation IC50 for this binder: MOR13756 (antibody, human IgG1, kappa, V domains shown, tested as IgG) VH: QVQLVQSGAEVKKPGESLKISCKGSGYSFTLTWVAWVRQMPGKGLEWMGIIYPGQSDTIYSPSFQGQVTISADKSISTAYLQWSSLKASDTAMYYCARVHIIQPPSAWSYNAMDVWGQGTLVTVSS VL: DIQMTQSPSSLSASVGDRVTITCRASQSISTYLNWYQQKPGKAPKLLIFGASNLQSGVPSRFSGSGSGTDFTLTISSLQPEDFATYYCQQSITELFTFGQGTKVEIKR
// result 97

Each recorded value in this set is attributed to patent US20130273029A1.
